Tested on: FAK;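 note: KINOMEscan scanMAX binding as percent activity remaining versus control; lower means stronger binding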
Construct: gene PTK2
Condition set: Compound Concentration (nM):1000
Experimental endpoint: Percent Control (%)
Write it as a number; the unit % goes unstated.

COc1cc(C)c(N(C)C(=O)CN(C)C)cc1Nc1nc(Nc2cccc(F)c2C(N)=O)c2cc[nH]c2n1 | 100
Cl.O=C(Nc1ccc(Oc2ccc3[nH]c(NC(=O)c4ccccc4)nc3c2)cc1)Nc1cc(C(F)(F)F)ccc1F [GW709042A] | 100
COc1ccc2c(-c3ccnc(Nc4cccc(OC(F)(F)F)c4)n3)cnn2n1 [GW810372X] | 100
NS(=O)(=O)c1ccc(N/N=C2\C(=O)Nc3ccc(C(=O)NCc4ccncc4)cc32)cc1 [GW300657X] | 86

Tell me Percent Control reported for Cc1cc(O)cc(C)c1/C=C/c1cncc(C(N)=O)c1 [GW435821X] 100

Recall and state the measured Percent Control for COc1cc2ncn(-c3cc(O[C@H](C)c4ccccc4Cl)c(C(N)=O)s3)c2cc1OC [GSK237701A] . 100

Kindly indicate its recorded Percent Control. Item: CCS(=O)(=O)c1ccc(OC)c(Nc2ncc(-c3cccc(OC)c3)o2)c1 [GW580509X] 100

Given the compound O=C(Nc1n[nH]c2nc(-c3ccc(O)cc3)c(Br)cc12)C1CC1 , write its reported Percent Control. 100

Fill in Percent Control for record Cl.O=S1CCN(Cc2ccc(-c3ccc4ncnc(Nc5ccc(OCc6ccccc6)c(F)c5)c4c3)o2)CC1 [GW576924A] 100

Supply reported Percent Control belonging to this compound: CN(C)CCNC(=O)Nc1ccc(N(C)c2ccnc(Nc3ccc(CS(C)(=O)=O)cc3)n2)cc1.Cl [GW830900A] 49

Tell me measured Percent Control for COc1cccc(-c2c[nH]c3c(N/N=C/c4ccncc4)ncnc23)c1 [GW814408X] please. 100

Tell me Percent Control reported for CCc1ccc(Oc2nccc(-c3c(-c4ccc(F)cc4)ncn3C3CCNCC3)n2)cc1 100

Note Percent Control for the compound shown: O=C1Nc2ccc(C(=O)c3ccco3)cc2C1=Cc1cc(Cl)c(O)c(Cl)c1 [GW406108X] 100
